Origin of measurements: patent US20230295200A1

Biological target: STAT6 protein (Homo sapiens)
Assay: Fluorescence polarization (FP) binding assay, STAT6
Settings: FP competition, 5 nM fluorescein-labeled tracer, 200 nM protein, PBS pH7.4; read-out: Binding STAT6
Attribute: Ki

Compound: CC(C)(C)[C@H](NC(=O)c1cc2cc(C(F)(F)P(=O)(O)O)ccc2s1)C(=O)N1Cc2ccccc2CC1C(=O)N1Cc2ccccc2C1 (stereo partly drawn)
Ki: > 10 µM

Compound: O=C(N[C@H](C(=O)N1CCC[C@H]1C(=O)N1CCO[C@@H](c2ccccc2)C1)C1CC1)c1cc2cc(C(F)(F)P(=O)(O)O)ccc2s1
Ki: 1 to 10 µM

Compound: CC(C)(C)[C@H](NC(=O)c1cc2cc(C(F)(F)P(=O)(O)O)ccc2s1)C(=O)N1CCC[C@H]1C(=O)N1CCN(S(C)(=O)=O)[C@H](c2ccccc2)C1
Ki: 1 to 10 µM

Compound: CC(=O)N1CC[C@H]2CC[C@@H](C(=O)N(C)c3ccc(F)cc3)N2C(=O)[C@@H](NC(=O)c2cc3cc(C(F)(F)P(=O)(O)O)ccc3[nH]2)C1
Ki: > 10 µM

Compound: CC1(c2ccc(F)cc2)CN(C(=O)[C@@H]2CCCN2C(=O)[C@@H](NC(=O)c2cc3cc(C(F)(F)P(=O)(O)O)ccc3s2)C(C)(C)C)CCO1 (stereo partly drawn)
Ki: 1 to 10 µM

Consider the additional compound presented here.
Kindly note the recorded Ki for CC(C)(C)[C@H](NC(=O)c1cc2cc(C(F)(F)P(=O)(O)O)ccc2[nH]1)C(=O)N1CCC[C@H]1c1ncc(Cc2ccccc2)s1 , which is > 10 µM

----------
Recorded pKi for the following compounds
Target: STAT6 protein (Homo sapiens, UniProt P42226)
Sequence (P42226 whole entry): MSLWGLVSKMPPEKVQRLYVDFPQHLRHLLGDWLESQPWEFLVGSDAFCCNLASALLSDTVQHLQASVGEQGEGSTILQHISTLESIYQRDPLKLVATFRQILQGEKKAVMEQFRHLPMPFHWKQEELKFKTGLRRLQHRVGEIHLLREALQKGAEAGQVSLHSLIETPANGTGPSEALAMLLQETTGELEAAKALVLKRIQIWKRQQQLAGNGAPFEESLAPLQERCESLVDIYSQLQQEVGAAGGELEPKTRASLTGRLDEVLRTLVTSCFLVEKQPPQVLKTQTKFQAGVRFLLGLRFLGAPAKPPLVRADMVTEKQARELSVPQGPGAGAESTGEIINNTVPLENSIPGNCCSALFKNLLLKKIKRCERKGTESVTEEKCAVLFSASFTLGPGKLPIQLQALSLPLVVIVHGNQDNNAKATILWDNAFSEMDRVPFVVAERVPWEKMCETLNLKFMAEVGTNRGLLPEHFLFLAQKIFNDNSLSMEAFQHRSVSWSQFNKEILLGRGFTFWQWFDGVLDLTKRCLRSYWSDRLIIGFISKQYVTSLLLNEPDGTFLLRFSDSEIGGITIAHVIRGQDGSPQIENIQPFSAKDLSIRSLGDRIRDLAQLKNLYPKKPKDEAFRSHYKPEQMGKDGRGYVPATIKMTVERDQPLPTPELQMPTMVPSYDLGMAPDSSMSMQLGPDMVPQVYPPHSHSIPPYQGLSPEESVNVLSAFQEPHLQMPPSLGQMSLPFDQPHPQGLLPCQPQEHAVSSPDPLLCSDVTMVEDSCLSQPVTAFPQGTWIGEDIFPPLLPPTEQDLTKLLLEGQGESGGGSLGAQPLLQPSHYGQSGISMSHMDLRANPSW
Experiment: Fluorescence polarization (FP) binding assay, STAT6
Details: FP competition, 5 nM fluorescein-labeled tracer, 200 nM protein, PBS pH7.4; read-out: Binding STAT6
pKi: −log10 of the molar value.

Below, 8 compounds whose answers are already recorded.
Compound: CC(C)(C)[C@H](NC(=O)/C=C/c1ccc(C(F)(F)P(=O)(O)O)cc1)C(=O)N1CCC[C@H]1c1nc(Cc2ccccc2)cs1
Value reported: < 5.00

Compound: CC(C)(C)[C@H](NC(=O)c1cc2cc(C(F)(F)P(=O)(O)O)ccc2s1)C(=O)N1CCC[C@H]1C(=O)N(CCC(=O)O)c1ccc(Br)cc1
Value reported: 6.00 to 7.00

Compound: CC(C)(C)[C@H](NC(=O)c1cc2cc(C(F)(F)P(=O)(O)O)ccc2s1)C(=O)N1CCC[C@H]1C(=O)N1CCOC(c2cccnc2)C1 (some centres unmarked)
Value reported: 6.00 to 7.00

Compound: CCCC[C@H](NC(=O)c1cc2cc(C(F)(F)P(=O)(O)O)ccc2s1)C(=O)N1CCC[C@H]1C(=O)N1CCO[C@H](c2ccccc2)C1
Value reported: 6.00 to 7.00

Compound: CC(C)(C)[C@H](NC(=O)c1cc2cc(C(F)(F)P(=O)(O)O)ccc2s1)C(=O)N1C[C@H](Oc2ccccc2)C[C@H]1C(=O)Nc1ncc(-c2ccccc2)s1
Value reported: 5.00 to 6.00

Compound: CCCCC(=O)N1C[C@@H]2CCN(C(=O)[C@@H]3CCCN3C(=O)[C@@H](NC(=O)c3cc4cc(C(F)(F)P(=O)(O)O)ccc4s3)C(C)(C)C)[C@@H]2C1
Value reported: < 5.00

Compound: CC1COC(c2ccccc2)CN1C(=O)[C@@H]1CCCN1C(=O)[C@@H](NC(=O)c1cc2cc(C(F)(F)P(=O)(O)O)ccc2s1)C(C)(C)C (some centres unmarked)
Value reported: 6.00 to 7.00

Compound: CC(=O)N1CC[C@H]2CC[C@@H](C(=O)N3CCOC(c4cccc(Cl)c4)C3)N2C(=O)[C@@H](NC(=O)c2cc3cc(C(F)(F)P(=O)(O)O)ccc3s2)C1 (some centres unmarked)
Value reported: 6.00 to 7.00

Input CC(=O)N1CC[C@H]2CC[C@@H](C(=O)N(C)Cc3ccccc3)N2C(=O)[C@@H](NC(=O)c2cc3cc(C(F)(F)P(=O)(O)O)ccc3[nH]2)C1 . Output pKi: 5.00 to 6.00

Lookup result for O=C(N[C@@H](CC1CCNCC1)C(=O)N1CCC[C@H]1C(=O)N1CCO[C@H](c2ccccc2)C1)c1cc2cc(C(F)(F)P(=O)(O)O)ccc2s1 ; measured pKi: 6.00 to 7.00

Value of measured pKi for the entry CC[C@H](NC(=O)c1cc2cc(C(F)(F)P(=O)(O)O)ccc2s1)C(=O)N1CCC[C@H]1C(=O)N1CCO[C@H](c2ccccc2)C1 : 6.00 to 7.00
